The origin of these recorded values is patent US10668081B2.

- study.system: Prostamide/FP receptor (Felis catus, UniProt A0ABI7XJ69)
- Sequence (A0ABI7XJ69 entry or part of it): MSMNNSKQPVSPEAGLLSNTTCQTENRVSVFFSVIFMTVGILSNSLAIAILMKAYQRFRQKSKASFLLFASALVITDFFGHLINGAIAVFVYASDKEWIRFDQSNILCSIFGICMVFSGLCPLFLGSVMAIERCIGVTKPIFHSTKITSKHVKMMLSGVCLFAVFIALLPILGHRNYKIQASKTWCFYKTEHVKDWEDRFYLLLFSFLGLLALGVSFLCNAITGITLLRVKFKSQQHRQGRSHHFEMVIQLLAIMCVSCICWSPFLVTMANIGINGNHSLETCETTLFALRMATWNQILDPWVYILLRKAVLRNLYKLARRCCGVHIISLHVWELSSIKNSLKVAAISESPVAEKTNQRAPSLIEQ
- experimental.details: Cat iris sphincter assay (contraction of isolated feline iris sphincter muscle)
pEC50: −log10 of the molar value.

>  <sample.smiles>
CCNC(=O)CCC/C=C\C[C@@H]1[C@@H](/C=C/[C@@H](O)CCc2cc(Br)c(C)s2)[C@H](O)C[C@@H]1O

>  <pEC50>
7.60

$$$$
